- Target or test system: Factor XIa (Homo sapiens (Human))
- Sequence (P03951 388-625): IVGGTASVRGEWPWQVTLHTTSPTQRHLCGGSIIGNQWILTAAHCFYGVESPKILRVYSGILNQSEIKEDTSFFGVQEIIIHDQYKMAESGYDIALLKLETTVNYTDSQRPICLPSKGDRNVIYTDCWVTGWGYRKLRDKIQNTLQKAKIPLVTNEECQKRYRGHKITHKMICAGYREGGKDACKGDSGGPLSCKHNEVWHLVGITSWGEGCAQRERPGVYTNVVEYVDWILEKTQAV
- Sequence (P03951 19-387 partner): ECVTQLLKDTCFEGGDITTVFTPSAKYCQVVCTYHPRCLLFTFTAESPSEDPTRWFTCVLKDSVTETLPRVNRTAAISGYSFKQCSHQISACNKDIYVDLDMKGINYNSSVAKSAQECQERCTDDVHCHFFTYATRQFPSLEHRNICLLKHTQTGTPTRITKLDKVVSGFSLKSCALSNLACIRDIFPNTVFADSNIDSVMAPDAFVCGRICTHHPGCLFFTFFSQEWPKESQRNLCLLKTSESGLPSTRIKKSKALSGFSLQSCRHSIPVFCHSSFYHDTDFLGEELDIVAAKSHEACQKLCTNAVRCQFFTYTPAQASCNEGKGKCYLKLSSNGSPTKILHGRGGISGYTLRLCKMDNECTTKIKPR
- Protocol description: Factor XIa inhibition assay (FLINT) utilizing a fluorophore-quencher pair peptide substrate
- Assay type: biochemical
- Particulars: 30 min preincubation, kinetic reads over 30 min, 5Fam-KLTRAETV-K5Tamra substrate 15 μM; read-out: FXIa Kin Inh IC50
Please respond with reported pIC50 for every item in the list.
Convention used: pIC50 is expressed as -log10 of the molar concentration.

Under Factor XIa (Homo sapiens (Human)): pIC50 value of CS(=O)(=O)Nc1cc(-c2[nH]c(C3CCC4CC(c5c(-n6cnnn6)ccc(Cl)c5F)=CC(=O)N43)nc2F)ccn1 (stereo not drawn) [Example 6] ?
9.22

Form field - read-out: pIC50; system: Factor XIa (Homo sapiens (Human)); submitted item: COc1ccc(-c2c[nH]c([C@@H]3CC[C@H]4CC(c5c(-n6cnnn6)ccc(Cl)c5F)=CC(=O)N43)n2)c(NC(=O)C2CC2)c1 [Example 264]
8.96

Item O=C1C=C(c2cc(Cl)ccc2-n2cc(C(F)(F)F)nn2)C[C@H]2CC[C@@H](c3ncc(-c4ccc5[nH]c(=O)ccc5c4)[nH]3)N12 [Example 101] with Factor XIa (Homo sapiens (Human)) - pIC50?
9.22

Entry Nc1ccc(-c2cnc([C@H]3CC[C@H]4CC(c5c(-n6cnnn6)ccc(Cl)c5F)=CC(=O)N43)[nH]2)c(F)n1 [Example 357] , system Factor XIa (Homo sapiens (Human)): what pIC50 was measured?
7.19

Identify the measured pIC50 of O=C1C=C(c2c(OC(F)F)ccc(Cl)c2F)C[C@H]2CC[C@@H](c3nc(F)c(-c4ccnc(CO)c4F)[nH]3)N12 [Example 23] for Factor XIa (Homo sapiens (Human)).
7.30

Which pIC50 is reported with Factor XIa (Homo sapiens (Human)) for this entry: O=C1C=C(c2c(-n3cnnn3)ccc(Cl)c2F)C[C@H]2CC[C@@H](c3nc(-c4ncc(CO)s4)c[nH]3)N12 [Example 39] ?
7.02

Reference source for all entries: patent US20230295157A1
